Recorded CD100, one value per entry.
# System: PANC-1
# experimental_details: Cytotoxicity against human PANC1 cells in nutrient deprived medium after 24 hrs
# Format: functional
reported_metric: CD100

CCO[C@@]12COc3cc(O)ccc3[C@@H]1Oc1cc(OC)ccc12 : >100 µM
COc1cc2c(cc1O)O[C@H](c1ccccc1)CC2=O : 50 µM
COc1ccc(-c2coc3cc(O)ccc3c2=O)cc1O [CALYCOSIN] : >100 µM
COc1ccc(-c2coc3cc(O)ccc3c2=O)cc1 [FORMONONETIN] : >100 µM
COc1cc(C[C@H]2C(=O)OC[C@@H]2Cc2ccc(OC)c(OC)c2)ccc1O [ARCTIGENIN] : 1 µM
O=C1C[C@@H](c2ccc(O)cc2)Oc2cc(O)cc(O)c21 [NARINGENIN] : >100 µM
COc1cc2c(cc1OC)[C@@H]1COc3cc(O)ccc3[C@@H]1O2 [SECUNDIFLOROL I] : >100 µM
COc1cc([C@H]2OC[C@H]3[C@@H]2CO[C@@H]3c2cc(OC)c(O)c(OC)c2)cc(OC)c1O [SYRINGARESINOL] : >100 µM
C=C[C@@H](c1ccccc1)c1cc(O)c(OC)cc1OC : >100 µM
O=c1[nH]cc(F)c(=O)[nH]1 [FLUOROURACIL] : >100 µM
COc1ccc(-c2coc3cc(O)ccc3c2=O)c(O)c1 [XENOGNOSIN B] : >100 µM
COc1ccc([C@H]2COc3cc(O)cc(O)c3C2=O)c(O)c1 : >100 µM
O=C1C[C@@H](c2ccccc2)Oc2cc(O)c(O)c(O)c21 : >100 µM
COc1c(O)cc2c(c1O)C(=O)[C@H](O)[C@@H](c1ccccc1)O2 [ALNUSTINOL] : >100 µM
COc1ccc2c(c1)O[C@H]1c3ccc(O)c(OC)c3OC[C@@H]21 : >100 µM
COc1ccc([C@H]2COc3cc(O)ccc3C2=O)c(O)c1 : >100 µM
COc1ccc2c(c1O)O[C@@H]1c3ccc(O)cc3OC[C@H]21 : 50 µM
O=C1c2ccc(O)cc2O[C@H](c2ccc(O)cc2)[C@H]1O [GARBANZOL] : >100 µM
COc1ccc2c(c1)O[C@@H]1c3ccc(O)cc3OC[C@H]21 : 50 µM
COc1ccc(-c2coc3cc(O)cc(O)c3c2=O)cc1O [PRATENSEIN] : >100 µM
O=C1C[C@@H](c2ccccc2)Oc2cc(O)ccc21 : >100 µM
COc1ccc(-c2coc3cc(O)cc(O)c3c2=O)c(O)c1 : >100 µM
COc1cc(O)ccc1[C@H]1COc2cc(O)ccc2C1 : >100 µM
O=C(/C=C/c1ccccc1)c1ccc(O)cc1O [2',4'-DIHYDROXYCHALCONE] : >100 µM
O=C(c1ccc(O)cc1O)[C@@H](O)Cc1ccc(O)cc1 : >100 µM
COc1ccc([C@H]2COc3cc(O)ccc3C2)c(OC)c1O [MUCRONULATOL] : >100 µM
COc1ccc([C@H]2COc3cc(OC)ccc3C2)c(O)c1 : 25 µM
COc1cc([C@@H]2OC[C@@H]3[C@H]2CO[C@H]3c2ccc(O)c(OC)c2)ccc1O [(+)-PINORESINOL] : >100 µM
COc1c(O)cc2oc(-c3ccccc3)c(O)c(=O)c2c1O [ALNUSIN] : >100 µM
COc1cc(O)ccc1C(=O)/C=C/c1ccc(O)cc1 : >100 µM
COc1ccc(-c2coc3cc(O)cc(O)c3c2=O)cc1 [BIOCHANIN] : >100 µM
